Let's look at some compounds and their measured TD50 at 0.5 h.
test: Neurotoxicity in ip dosed NMRI mouse assessed as minimal motor impairment after 30 mins; assay type: toxicity, organism-based; conditions: in vivo

[[record]]
compound = "CC(C)[C@H](N)C(=O)NCc1ccccc1"
value_kind = "TD50 at 0.5 h"
assay_value = "> 300 mg/kg"

[[record]]
compound = "C[C@@H](N)C(=O)NCc1ccccc1"
value_kind = "TD50 at 0.5 h"
assay_value = "< 100 mg/kg"

[[record]]
compound = "C=CCOCC(NC(C)=O)C(=O)NCc1ccccc1 (racemic)"
value_kind = "TD50 at 0.5 h"
assay_value = "< 30 mg/kg"

[[record]]
compound = "CC(=O)N[C@@H](C(=O)NCc1ccccc1)C(C)C"
value_kind = "TD50 at 0.5 h"
assay_value = "> 300 mg/kg"

[[record]]
compound = "COCC(N)C(=O)NCc1ccccc1 (racemic)"
value_kind = "TD50 at 0.5 h"
assay_value = "290 mg/kg"


Challenge: Which TD50 at 0.5 h reading was recorded for the compound C#CCOCC(NC(C)=O)C(=O)NCc1ccccc1 (racemic) ?
Response given: 59 mg/kg

Challenge: # lookup: TD50 at 0.5 h of CC(=O)NC(C)C(=O)NCc1ccccc1 (racemic)
Response given: 450 mg/kg

* * *

system: Mus musculus; assay: Anticonvulsant activity in ip dosed CF1 mouse assessed as protection against maximal electroshock-induced seizure after 30 mins; type: functional; conditions: 0.5 h
VALUE KIND: ED50 (mg/kg)
Answer in mg/kg, number only, no unit symbol.

[[record]]
compound = "CC(=O)NC(C(=O)NCc1ccccc1)c1cccs1 (stereo not given)"
assay_value = 45


Please find the next compound below.
Challenge: So what's the measured ED50 for this one? "CC[C@@H](N)C(=O)NCc1ccccc1"
Response given: 18

* * *

assay: Neurotoxicity in po dosed Sprague-Dawley rat assessed as minimal motor impairment after 30 mins by rotorod test; assay type: toxicity, organism-based; details: in vivo
VALUE KIND: TD50 at 0.5 h

[[record]]
compound = "COC[C@@H](NC(C)=O)C(=O)NCc1ccccc1 [LACOSAMIDE]"
assay_value = "> 500 mg/kg"


Challenge: Would you mind telling me what TD50 at 0.5 h value was observed for "CC(C)(C)[C@@H](N)C(=O)NCc1ccccc1" ?
Response given: > 500 mg/kg

Challenge: What measured TD50 at 0.5 h goes with "C[C@H](N)C(=O)NCc1ccccc1" ?
Response given: > 80 mg/kg

Challenge: Which TD50 at 0.5 h reading was recorded for the compound "CC(C)(C)[C@H](N)C(=O)NCc1ccccc1" ?
Response given: > 30 mg/kg

Challenge: Fill blank: measured TD50 at 0.5 h of the compound "CC[C@@H](N)C(=O)NCc1ccccc1" is ____.
Response given: > 500 mg/kg

Challenge: Name the reported TD50 at 0.5 h value associated with the compound CC(N)C(=O)NCc1ccccc1 (racemic)
Response given: > 500 mg/kg

Challenge: Reported TD50 at 0.5 h, compound "CC(C)[C@@H](N)C(=O)NCc1ccccc1" : ____
Response given: > 500 mg/kg

Challenge: Bench note: what TD50 at 0.5 h did O=C1NC(=O)C(c2ccccc2)(c2ccccc2)N1 [PHENYTOIN] show?
Response given: > 3000 mg/kg

Challenge: For "C[C@@H](N)C(=O)NCc1ccccc1" , what is its reported TD50 at 0.5 h?
Response given: > 30 mg/kg

Cited source for all entries: ChEMBL document CHEMBL2146408
